System: phospho AKT (ser473) in MDA-MB-468 cells
Assay: Detection of phospho AKT (ser473) in MDA-MB-468 cells
Format: cell-based
Conditions: Homo sapiens, Test (b), 2 hours incubation, approximate value, read-out: IC50 versus cellular phospho AKT (ser473) in MDA-MB-468 cells
pIC50: −log10 of the molar value.
Kindly state pIC50 for each of the entries shown.

- molecule: "C[C@@H]1CN(c2cc(=O)c3cc(C(=O)N4CCOCC4)cc(C4CCCN4c4cc(F)cc(F)c4)c3o2)CCO1 (stereo partly drawn)"
  reportedResult: "~8.52"
- molecule: "CN(C)C(=O)c1cc(C2CCCN2c2cccc(F)c2)c2oc(N3CCOCC3)cc(=O)c2c1 (stereo not drawn)"
  reportedResult: "~8.70"
- molecule: "O=C(c1cc([C@H]2CCCN2c2cc(F)cc(F)c2)c2oc(N3CCOCC3)cc(=O)c2c1)N1CCOCC1 [Example 1.03b]"
  reportedResult: "~9.00"
- molecule: "C[C@@H]1CN(c2cc(=O)c3cc(C(=O)N(C)C)cc(C4CCCN4c4cccc(F)c4)c3o2)CCO1 (stereo partly drawn)"
  reportedResult: "~9.00"
- molecule: "CN(C)C(=O)c1cc([C@H]2CCCN2c2cccc(F)c2)c2oc(N3CCOCC3)cc(=O)c2c1"
  reportedResult: "~9.00"
- molecule: "O=C(c1cc([C@H]2CCCN2c2cc(F)cc(F)c2)c2oc(N3CCOCC3)cc(=O)c2c1)N1CCC1"
  reportedResult: "~9.00"
- molecule: "O=C(c1cc(C2CCCN2c2cc(F)cc(F)c2)c2oc(N3CCOCC3)cc(=O)c2c1)N1CC[S+]([O-])CC1 (stereo not drawn)"
  reportedResult: "~8.30"
- molecule: "O=C(c1cc([C@H]2CCCN2c2cccc(F)c2)c2oc(N3CCOCC3)cc(=O)c2c1)N1CCOCC1"
  reportedResult: "~8.70"
- molecule: "O=C(c1cc([C@@H]2CCCN2c2cc(F)cc(F)c2)c2oc(N3CCOCC3)cc(=O)c2c1)N1CCOCC1 [Example 1.03a]"
  reportedResult: "~7.57"
- molecule: "O=C(c1cc([C@H]2CCCN2c2cccc(F)c2)c2oc(N3CCOCC3)cc(=O)c2c1)N1CCC1"
  reportedResult: "~8.70"

Please go through the list and note pIC50 for each molecule.
1. O=C(c1cc(C2CCCN2c2cc(F)cc(F)c2)c2oc(N3CCOCC3)cc(=O)c2c1)N1CCOCC1 (racemic)
2. C[C@@H]1CN(c2cc(=O)c3cc(C(=O)N4CCOCC4)cc(C4CCCN4c4ccccc4)c3o2)CCO1 (stereo partly drawn)
3. COc1cccc(N2CCC[C@@H]2c2cc(C(=O)N3CCOCC3)cc3c(=O)cc(N4CCOCC4)oc23)c1
4. C[C@@H]1CN(c2cc(=O)c3cc(C(=O)N4CCOCC4)cc(C4CCCN4c4cccc(F)c4)c3o2)CCO1 (stereo partly drawn)
5. CN1CCN(C(=O)c2cc([C@H]3CCCN3c3cccc(F)c3)c3oc(N4CCOCC4)cc(=O)c3c2)CC1

1. ~8.70
2. ~8.22
3. ~8.10
4. ~8.52
5. ~8.40

###

Tested on: phospho AKT (ser473) in Jeko cells
Assay: Detection of phospho AKT (ser473) in Jeko cells
Assay type: cell-based
Conditions: Homo sapiens; Test (e); anti-IgM stimulated; approximate value; read-out: IC50 versus cellular phospho AKT (ser473) in Jeko cells
pIC50: −log10 of the molar value.
endpointName: pIC50

Record summary for O=C(c1cc([C@H]2CCCN2c2cc(F)cc(F)c2)c2oc(N3CCOCC3)cc(=O)c2c1)N1CCOCC1 [Example 1.03b] : reported pIC50 = ~8.15

###

Target: PI3Kδ (Homo sapiens, UniProt O00329)
Sequence (O00329 whole entry): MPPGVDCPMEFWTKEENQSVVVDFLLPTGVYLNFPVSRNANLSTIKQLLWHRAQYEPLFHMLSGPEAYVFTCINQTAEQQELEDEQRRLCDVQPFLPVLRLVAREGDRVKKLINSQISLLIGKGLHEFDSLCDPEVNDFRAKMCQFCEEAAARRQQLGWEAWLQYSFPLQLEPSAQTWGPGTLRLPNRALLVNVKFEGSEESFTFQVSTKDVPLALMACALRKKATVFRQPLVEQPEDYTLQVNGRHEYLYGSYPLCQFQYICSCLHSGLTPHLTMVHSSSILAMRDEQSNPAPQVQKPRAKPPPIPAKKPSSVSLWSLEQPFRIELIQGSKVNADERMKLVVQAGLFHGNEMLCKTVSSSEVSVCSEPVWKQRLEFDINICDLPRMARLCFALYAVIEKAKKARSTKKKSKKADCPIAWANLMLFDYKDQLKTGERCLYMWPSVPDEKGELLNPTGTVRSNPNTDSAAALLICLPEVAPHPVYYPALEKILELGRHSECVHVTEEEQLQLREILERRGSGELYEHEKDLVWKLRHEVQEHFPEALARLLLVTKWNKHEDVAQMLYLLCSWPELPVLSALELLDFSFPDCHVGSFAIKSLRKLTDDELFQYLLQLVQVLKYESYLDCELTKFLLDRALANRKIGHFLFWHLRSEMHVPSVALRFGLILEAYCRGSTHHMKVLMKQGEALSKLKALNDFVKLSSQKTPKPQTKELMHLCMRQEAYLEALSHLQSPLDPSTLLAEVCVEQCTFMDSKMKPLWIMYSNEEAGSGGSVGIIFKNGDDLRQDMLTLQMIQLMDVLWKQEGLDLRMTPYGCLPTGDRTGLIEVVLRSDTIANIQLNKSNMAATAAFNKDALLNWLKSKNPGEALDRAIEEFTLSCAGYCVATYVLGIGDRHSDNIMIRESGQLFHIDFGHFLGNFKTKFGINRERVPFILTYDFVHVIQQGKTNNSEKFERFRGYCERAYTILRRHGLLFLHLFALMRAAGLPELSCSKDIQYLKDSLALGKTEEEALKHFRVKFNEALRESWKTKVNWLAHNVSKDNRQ
Sequence (P27986 whole entry partner): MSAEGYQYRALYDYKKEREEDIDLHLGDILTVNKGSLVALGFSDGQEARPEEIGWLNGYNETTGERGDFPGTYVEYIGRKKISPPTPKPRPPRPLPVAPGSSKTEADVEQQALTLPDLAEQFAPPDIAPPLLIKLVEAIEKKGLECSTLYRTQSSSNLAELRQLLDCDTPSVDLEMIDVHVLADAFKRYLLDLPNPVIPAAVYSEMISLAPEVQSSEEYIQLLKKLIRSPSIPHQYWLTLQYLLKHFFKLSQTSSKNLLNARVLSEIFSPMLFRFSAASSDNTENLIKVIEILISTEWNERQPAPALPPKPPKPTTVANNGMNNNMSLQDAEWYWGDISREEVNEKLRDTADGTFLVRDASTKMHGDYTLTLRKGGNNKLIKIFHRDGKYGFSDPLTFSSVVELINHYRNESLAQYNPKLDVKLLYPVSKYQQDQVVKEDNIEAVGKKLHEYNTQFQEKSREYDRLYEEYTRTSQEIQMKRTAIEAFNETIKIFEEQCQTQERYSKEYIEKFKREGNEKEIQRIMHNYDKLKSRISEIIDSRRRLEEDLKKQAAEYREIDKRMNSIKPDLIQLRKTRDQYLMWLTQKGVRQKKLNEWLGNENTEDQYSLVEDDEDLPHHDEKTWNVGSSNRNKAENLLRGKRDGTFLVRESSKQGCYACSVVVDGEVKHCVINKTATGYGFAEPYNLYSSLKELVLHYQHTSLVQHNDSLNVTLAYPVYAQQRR
Assay: In vitro enzyme inhibition assay (Kinase Glo), PI3Kδ
Assay type: biochemical
Conditions: Test (a); approximate value; read-out: IC50 versus PI3Kδ
pIC50: −log10 of the molar value.
endpointName: pIC50

Consider the following items and state reported pIC50 for each.
1. O=C(c1cc([C@H]2CCCN2c2cccc(F)c2)c2oc(N3CCOCC3)cc(=O)c2c1)N1CCC1 [Example 1.08]
2. O=C(c1cc(C2CCCN2c2cc(F)cc(F)c2)c2oc(N3CCOCC3)cc(=O)c2c1)N1CC[S+]([O-])CC1 (stereo not shown) [Example 1.04]
3. O=C(c1cc(C2CCCN2c2cc(F)cc(F)c2)c2oc(N3CCOCC3)cc(=O)c2c1)N1CCOCC1 (racemic) [Example 1.03]

["~8.22", "~7.62", "~7.66"]

Hi team, please reply with pIC50 for each item in this list.
1. O=C(c1cc([C@H]2CCCN2c2cc(F)cc(F)c2)c2oc(N3CCOCC3)cc(=O)c2c1)N1CCOCC1 [Example 1.03b]
2. C[C@@H]1CN(c2cc(=O)c3cc(C(=O)N4CCOCC4)cc(C4CCCN4c4cc(F)cc(F)c4)c3o2)CCO1 (stereo partly shown) [Example 3.00]
3. C[C@@H]1CN(c2cc(=O)c3cc(C(=O)N4CCOCC4)cc(C4CCCN4c4cccc(F)c4)c3o2)CCO1 (stereo partly shown) [Example 3.02]

1: ~8.05; 2: ~7.74; 3: ~8.00

For reference, reported pIC50 for CN1CCN(C(=O)c2cc([C@H]3CCCN3c3cccc(F)c3)c3oc(N4CCOCC4)cc(=O)c3c2)CC1 [Example 1.10] stands at ~7.68

###

Can you tell me pIC50 for the items I'm about to list?
Target: PI3Kβ (Homo sapiens, UniProt P42338)
Sequence (P42338 whole entry, one chain of several): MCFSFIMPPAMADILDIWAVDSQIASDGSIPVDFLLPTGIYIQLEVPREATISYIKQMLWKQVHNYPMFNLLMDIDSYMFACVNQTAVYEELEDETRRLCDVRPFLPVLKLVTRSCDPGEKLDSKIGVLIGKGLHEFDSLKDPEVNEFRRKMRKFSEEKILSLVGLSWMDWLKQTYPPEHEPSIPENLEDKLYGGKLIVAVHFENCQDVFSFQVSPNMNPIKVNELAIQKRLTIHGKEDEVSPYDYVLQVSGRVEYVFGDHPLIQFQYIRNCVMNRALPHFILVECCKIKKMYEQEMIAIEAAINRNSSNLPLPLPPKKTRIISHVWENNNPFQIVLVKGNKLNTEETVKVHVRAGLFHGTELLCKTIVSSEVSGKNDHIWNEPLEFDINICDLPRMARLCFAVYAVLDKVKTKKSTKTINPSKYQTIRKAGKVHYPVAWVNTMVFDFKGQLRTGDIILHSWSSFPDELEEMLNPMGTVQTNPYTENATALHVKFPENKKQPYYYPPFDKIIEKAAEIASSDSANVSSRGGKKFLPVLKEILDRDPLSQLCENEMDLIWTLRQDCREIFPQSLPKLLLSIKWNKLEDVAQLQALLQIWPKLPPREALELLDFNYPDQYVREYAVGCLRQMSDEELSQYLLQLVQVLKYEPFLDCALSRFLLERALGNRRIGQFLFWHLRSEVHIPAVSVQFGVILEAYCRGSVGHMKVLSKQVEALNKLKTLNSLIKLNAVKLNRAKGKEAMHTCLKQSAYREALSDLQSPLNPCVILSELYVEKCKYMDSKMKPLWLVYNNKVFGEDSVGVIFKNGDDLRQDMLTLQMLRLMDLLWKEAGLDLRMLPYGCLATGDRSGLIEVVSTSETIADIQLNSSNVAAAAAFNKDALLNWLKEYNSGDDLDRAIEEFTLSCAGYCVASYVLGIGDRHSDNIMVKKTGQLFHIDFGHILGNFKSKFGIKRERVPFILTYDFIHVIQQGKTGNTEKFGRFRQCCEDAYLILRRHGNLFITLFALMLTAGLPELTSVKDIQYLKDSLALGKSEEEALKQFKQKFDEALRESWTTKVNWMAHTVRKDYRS
Experiment: In vitro enzyme inhibition assay (Kinase Glo), PI3Kβ
Assay type: biochemical
Details: Test (a); human recombinant enzyme; ATP 8 μM, PIP2 80 μM; Table A; read-out: PI3Kβ inhibition, IC50
Answers are plain numbers, as −log10 of the molar value.

Example entries and their recorded answers appear below.
- compound: "C[C@@H]1CN(c2cc(=O)c3cc(C(=O)N4CCOCC4)cc(C4CCCN4c4cccc(F)c4)c3o2)CCO1 (stereo partly shown)"
  pIC50: 7.85
- compound: "O=C(c1cc(C2CCCN2c2ccc(F)cc2)c2oc(N3CCOCC3)cc(=O)c2c1)N1CCOCC1 (racemic)"
  pIC50: 7.82
- compound: "C[C@@H]1CN(c2cc(=O)c3cc(C(=O)N4CCOCC4)cc(C4CCCN4c4ccccc4)c3o2)CCO1 (stereo partly shown)"
  pIC50: 7.85
- compound: "O=C(c1cc([C@H]2CCCN2c2cc(F)cc(F)c2)c2oc(N3CCOCC3)cc(=O)c2c1)N1CCC1"
  pIC50: 8.15

Batch: pIC50 for all items listed.
1. O=C(c1cc(C2CCCN2c2cc(F)cc(F)c2)c2oc(N3CCOCC3)cc(=O)c2c1)N1CCOCC1 (racemic)
2. O=C(c1cc(C2CCCN2c2cc(F)cc(F)c2)c2oc(N3CCOCC3)cc(=O)c2c1)N1CC[S+]([O-])CC1 (stereo not shown)
3. C[C@@H]1CN(c2cc(=O)c3cc(C(=O)N(C)C)cc(C4CCCN4c4cccc(F)c4)c3o2)CCO1 (stereo partly shown)

7.92
7.96
8.00

###

For each entry below, report its pIC50 value.
Molecular target: PI3Kδ (Homo sapiens)
Test: In vitro enzyme inhibition assay (Kinase Glo), PI3Kδ
Format: biochemical
Conditions: Test (a); human recombinant enzyme; Table A; read-out: PI3Kδ inhibition, IC50
Description: (a) In Vitro Enzyme Inhibition Assay The inhibition of PI3Kβ, PI3Kα, PI3Kγ and PI3Kδ was evaluated in a Kinase Glo based enzyme activity assay using human recombinant enzymes. The assay measures depletion of ATP after incubation with enzyme, PIP2 and ATP plus compound. ATP at the end of the reaction is detected by addition of Kinase Glo reagent, in this the Ultra Glo™ luciferase (Promega) uses the ATP as a substrate to catalyze the mono-oxygenation of luciferin and the generation of light. […]
One number for each entry, as −log10 of the molar value.

- molecule: "O=C(c1cc([C@H]2CCCN2c2cc(F)cc(F)c2)c2oc(N3CCOCC3)cc(=O)c2c1)N1CCOCC1 [Example 1.03b]"
  pIC50: 8.05

For each entry beneath this line, provide reported pIC50.
1. CN1CCN(C(=O)c2cc([C@H]3CCCN3c3cc(F)cc(F)c3)c3oc(N4CCOCC4)cc(=O)c3c2)CC1
2. CN(C)C(=O)c1cc(C2CCCN2c2cc(F)cc(C#N)c2)c2oc(N3CCOCC3)cc(=O)c2c1 (stereo not shown)
3. O=C(c1cc(C2CCCN2c2cc(F)cc(F)c2)c2oc(N3CCOCC3)cc(=O)c2c1)N1CCOCC1 (racemic)
4. COc1cccc(N2CCCC2c2cc(C(=O)N(C)C)cc3c(=O)cc(N4CCOCC4)oc23)c1 (stereo not shown)

1: 7.85; 2: 7.80; 3: 7.66; 4: 7.82

// each molecule listed below needs its pIC50
1. O=C(c1cc([C@H]2CCCN2c2cc(F)cc(F)c2)c2oc(N3CCOCC3)cc(=O)c2c1)N1CCC1
2. O=C(c1cc([C@H]2CCCN2c2cccc(F)c2)c2oc(N3CCOCC3)cc(=O)c2c1)N1CCOCC1

[8.05, 8.30]
